system: T-47D breast; assay: NCI tumour cell line growth inhibition, 48 h
Recorded TGI values for a group of compounds are listed next.

COc1cc(/C=N\N(C)C)cc(/C=N/N(C)C)c1O	15.2 µM
CCOC(=S)SSSC(=S)OCC	60 µM
N#CC(C#N)=C1Nc2ccccc2S1	> 100 µM
Nc1cccnc1NCC1(CO)CCCC1	> 100 µM
COc1cc2cc(Oc3ccc(NC(=O)Nc4ccc(Cl)c(C(F)(F)F)c4)cc3)c(C)nc2cc1OCCN1CCOCC1	5.2 µM

Attention now turns to another entry.
Q: Report its TGI with T-47D breast as the test system: CC(C)NC(NC(C)C)=C(S(=O)(=O)C(F)(F)C(F)(F)C(F)(F)C(F)(F)F)S(=O)(=O)C(F)(F)C(F)(F)C(F)(F)C(F)(F)F
Result: > 100 µM

###

Form field: TGI (one value per entry).
system: A549 NSCLC; assay: NCI tumour cell line growth inhibition, 48 h

Below, each entry is followed by its recorded TGI result.
O=C(Nc1ccc(-c2nc(N3CCOCC3)c3cccn3n2)cc1)Nc1cccnc1	> 100 µM
O=C(Nc1ccncc1)C(=O)c1cn(S(=O)(=O)c2cccc(F)c2)c2ccccc12	> 100 µM
NCCCCC(NC(=O)C(N)Cc1ccc(O)cn1)C(=O)O (configuration not stated)	> 100 µM
COC(=O)CC(c1cn(S(=O)(=O)c2ccc(C)cc2)c2ccccc12)C1C[C@@H](C(=O)OC)N(C(=O)OC(C)(C)C)C1=O (some centres not stated)	> 100 µM
O=C(N/N=C/C=C/c1ccccc1)[C@H](O)[C@@H](O)C(=O)N/N=C/C=C/c1ccccc1	> 100 µM

Q: Name the recorded TGI of the item c1ccc(-c2nc3ccccc3n3c(CN4CCCCC4)nnc23)cc1 in your answer.
Result: > 100 µM

Q: Determine its reported TGI: O=c1[nH]nc(-c2ccccc2)n1-c1ccncc1
Result: > 100 µM

Q: Provide TGI value for the following compound: O=C1N=C(SC2OC(CO)C(O)C(O)C2O)S/C1=C\c1ccccc1 (configuration not stated)
Result: > 100 µM

###

test system: KM12 colon; test: NCI tumour cell line growth inhibition, 48 h
Readout: TGI

Check out these entries, answers already filled in.
O=C(CCc1cc(-c2ccccc2)nc(=S)[nH]1)N(Cc1ccccc1)Cc1ccccc1	> 100 µM
CO/C(N)=C(\C#N)N=Cc1ccco1	> 100 µM

// below: TGI requested for another molecule
Q: Consider the molecule CCCC/C=C/C/C=C/CCCCCCCCC(=O)OCC1CCCN2CCCCC12 (stereo not drawn) tested on KM12 colon; state its TGI.
Result: > 100 µM

###

test system: CCRF-CEM leukemia; assay: NCI tumour cell line growth inhibition, 48 h
Readout: TGI (µM)
// note: answer is a bare numeric in µM

Q: Look up CCRF-CEM leukemia data: TGI of NC(=O)NS(=O)(=O)c1ccc(N2N=C(C(F)(F)F)CC2c2cc(C(F)(F)F)cc(C(F)(F)F)c2)cc1 (configuration not stated) , then report it.
Result: 19.9

Q: Give the observed TGI of CN1CCN(c2ccc3[nH]c(-c4cc(O)c5c(nc(CO)n5C)c4O)nc3n2)CC1 for CCRF-CEM leukemia.
Result: 58.6

Q: Name the value of TGI reported for CCc1ccccc1NC(=O)C1=C(C)NC(C)=C(C(=O)Nc2ccccc2CC)C1c1ccc2c(c1)OCO2 when tested on CCRF-CEM leukemia.
Result: 84.4

Q: Using CCRF-CEM leukemia as the test system, report measured TGI of O=c1oc2ccccc2cc1-c1csc(Nc2ccc(F)cc2)n1 .
Result: 16.3

Q: Write TGI of C/C(Cl)=N/OC(=O)Nc1ccc(S(N)(=O)=O)c(C)c1 ; system used: CCRF-CEM leukemia
Result: 3.99

Q: Give reported TGI for O=C(CCc1nnc2sc(-c3ccc(Cl)cc3Cl)nn12)c1nc2ccccc2[nH]1 (CCRF-CEM leukemia)
Result: 0.974
